Source of measurements: paper PMC6500773

hSERT (Homo sapiens, UniProt P31645) data, read-out Ki
Sequence (P31645 whole entry): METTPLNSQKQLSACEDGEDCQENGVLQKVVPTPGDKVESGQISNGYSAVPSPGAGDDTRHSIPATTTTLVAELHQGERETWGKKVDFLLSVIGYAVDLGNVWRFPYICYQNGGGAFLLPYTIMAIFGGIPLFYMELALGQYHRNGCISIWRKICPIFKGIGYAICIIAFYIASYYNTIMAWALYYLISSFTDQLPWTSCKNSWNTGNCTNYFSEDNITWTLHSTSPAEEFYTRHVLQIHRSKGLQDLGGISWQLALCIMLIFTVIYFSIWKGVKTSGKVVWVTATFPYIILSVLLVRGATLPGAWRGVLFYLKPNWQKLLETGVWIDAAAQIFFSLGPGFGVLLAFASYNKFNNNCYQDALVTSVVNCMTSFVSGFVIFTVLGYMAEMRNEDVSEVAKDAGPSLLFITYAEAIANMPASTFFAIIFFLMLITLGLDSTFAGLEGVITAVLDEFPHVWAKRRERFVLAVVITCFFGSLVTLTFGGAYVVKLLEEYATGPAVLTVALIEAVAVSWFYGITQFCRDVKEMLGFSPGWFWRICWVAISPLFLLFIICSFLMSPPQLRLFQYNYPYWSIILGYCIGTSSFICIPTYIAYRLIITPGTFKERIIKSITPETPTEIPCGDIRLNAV
Assay metric: Ki (µM)

# Compound, Tgt, Value measured
data = [
    ("CCCC(Cc1ccccc1)N1CCCC1 (centres unmarked) [Prolintane, 1-[1-(phenylmethyl)butyl]-pyrrolidine]", "hSERT (Homo sapiens, UniProt P31645)", 2.52),
    ("CNC(COC)C(=O)c1ccc(C)cc1 (centres unmarked) [Mexedrone]", "hSERT (Homo sapiens, UniProt P31645)", 22.2),
    ("CN[C@@H](C)Cc1ccccc1 [METH, methamphetamine, reference compound]", "hSERT (Homo sapiens, UniProt P31645)", 150),
    ("CC(C(=O)c1ccc(Cl)cc1)N1CCCC1 (stereo not drawn) [4-Cl-α-PPP, 4’-chloro-α-pyrrolidinopropiophenone]", "hSERT (Homo sapiens, UniProt P31645)", 12.7),
    ("CCCCC(C(=O)c1ccc2c(c1)OCO2)N1CCCC1 (centres unmarked) [3,4-MDPHP]", "hSERT (Homo sapiens, UniProt P31645)", 2.43),
]
